- Test target: MGL (Rattus norvegicus)
- Construct: one g rat brain was homogenized using a Polytron homogenizer; from tissue; host or cells: rat brain homogenate
- Sequence (Q8R431 1-303): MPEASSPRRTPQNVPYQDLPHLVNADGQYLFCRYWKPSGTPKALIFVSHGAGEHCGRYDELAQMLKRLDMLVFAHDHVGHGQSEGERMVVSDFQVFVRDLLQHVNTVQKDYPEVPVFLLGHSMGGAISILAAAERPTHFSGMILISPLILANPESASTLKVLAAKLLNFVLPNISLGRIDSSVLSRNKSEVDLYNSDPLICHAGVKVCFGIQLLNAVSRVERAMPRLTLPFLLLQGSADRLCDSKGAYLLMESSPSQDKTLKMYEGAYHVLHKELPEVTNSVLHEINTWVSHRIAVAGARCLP
- Assay explanation: 2-AG accumulation assay in rat brain homogenate
- Type: biochemical
- Conditions used: rat brain homogenate; compound 0.1 μM; 2-AG accumulation as percent of vehicle; read-out: Rat Brain 2AG % VehCntrl (%) @ 0.1 μM
Readout kind: 2-AG accumulation, % of vehicle control at 0.1 µM (%)

Example results:
{"Sample smiles": "O=C(c1cscn1)N1CCN(C2CN(C(=O)c3ccc(-c4cccc(C(F)(F)F)c4)cc3Cl)C2)CC1", "Observed": 144}
{"Sample smiles": "Cc1nc(-c2ccc(F)cc2)sc1C(=O)N1CC(N2CCN(C(=O)c3nccs3)CC2)C1", "Observed": 139}
{"Sample smiles": "O=C(c1ccc(-c2ccccc2)cc1)N1CC(N2CCN(C(=O)c3nccs3)CC2)C1", "Observed": 184}
{"Sample smiles": "O=C(c1ccc2nc(-c3ccc(C(F)(F)F)cc3)oc2c1)N1CC(N2CCN(C(=O)c3nccs3)CC2)C1", "Observed": 237}

I. O=C(c1ccccc1)N1CCN(C2CN(C(=O)c3ccc(-c4ccc(Cl)c(Cl)c4)cc3)C2)CC1
II. O=C(c1cscn1)N1CCN(C2CN(C(=O)c3ccc(-c4ccccc4)cc3F)C2)CC1
III. O=C(c1cc2cc(C(F)(F)F)ccc2s1)N1CC(N2CCN(C(=O)c3nccs3)CC2)C1
QUERY: Arrange the 3 entries by 2-AG accumulation, % of vehicle control at 0.1 µM so the values rise. Hello, could you send the labels back in the order asked? Thank you.
RESULT: II, I, III

---

- Test target: mutant MGL (Homo sapiens, UniProt Q99685, L169S/L176S)
- Sequence (Q99685 1-303 L169S/L176S): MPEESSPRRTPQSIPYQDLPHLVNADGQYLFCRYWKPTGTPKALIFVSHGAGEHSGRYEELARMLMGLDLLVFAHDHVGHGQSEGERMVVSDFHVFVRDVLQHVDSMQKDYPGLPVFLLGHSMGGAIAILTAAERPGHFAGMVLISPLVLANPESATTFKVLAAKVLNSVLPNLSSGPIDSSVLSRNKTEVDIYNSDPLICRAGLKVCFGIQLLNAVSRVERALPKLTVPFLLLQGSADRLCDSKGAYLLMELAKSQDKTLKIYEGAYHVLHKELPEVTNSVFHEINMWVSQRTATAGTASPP
- Assay explanation: MGL ThermoFluor assay - mutant
- Assay type: binding
- Conditions used: compound concentration measured by qNMR, read-out: MGL mutant ThermoFluor qKd (using qNMR conc.)
Readout kind: Kd (nM)

{"Molecule": "Cc1nc2cc(C(=O)N3CC(N4CCN(C(=O)c5cscn5)CC4)C3)ccc2n1-c1ccc(F)c(F)c1", "Units text": "nM", "Kd": 251}
{"Molecule": "O=C(c1ccccc1)N1CCN(C2CN(C(=O)c3cc4ccn(-c5ccc(F)cc5)c4cc3F)C2)CC1", "Units text": "nM", "Kd": 52}
{"Molecule": "O=C(c1ccc2nc(N3CCC(F)(F)CC3)sc2c1)N1CC(N2CCN(C(=O)c3nccs3)CC2)C1", "Units text": "nM", "Kd": 18}
{"Molecule": "O=C(c1ccc2c(ccn2Cc2ccncc2)c1)N1CC(N2CCN(C(=O)c3nccs3)CC2)C1", "Units text": "nM", "Kd": 64}
{"Molecule": "O=C(c1ccc(Oc2cc(C(F)(F)F)ccn2)cc1)N1CC(N2CCN(C(=O)C(F)(F)F)CC2)C1", "Units text": "nM", "Kd": 20000}
{"Molecule": "NC(=O)c1ccc(Cn2ncc3cc(C(=O)N4CC(N5CCN(C(=O)c6nccs6)CC5)C4)ccc32)cc1", "Units text": "nM", "Kd": 945}
{"Molecule": "O=C(c1ccc[nH]1)N1CCN(C2CN(C(=O)c3nn(-c4ccc(Cl)cc4Cl)c4c3CSC/C4=C\\c3ccc(F)cc3)C2)CC1", "Units text": "nM", "Kd": 135}
{"Molecule": "Cc1nc2cc(C(=O)N3CC(N4CCN(C(=O)c5cscn5)CC4)C3)ccc2n1-c1ccc(C(F)(F)F)cc1", "Units text": "nM", "Kd": 130}
{"Molecule": "O=C(c1ccc2c(c1)ncn2C1CCC(F)(F)CC1)N1CC(N2CCN(C(=O)c3nccs3)CC2)C1", "Units text": "nM", "Kd": 37}
{"Molecule": "O=C(c1cc(F)c2c(ccn2-c2ccc(F)cc2)c1)N1CC(N2CCN(C(=O)c3cscn3)CC2)C1", "Units text": "nM", "Kd": 9}

1. N#Cc1ccc(Cn2ncc3cc(C(=O)N4CC(N5CCN(C(=O)c6nccs6)CC5)C4)ccc32)cc1
2. O=C(c1ccc2nn(Cc3ccc(C(F)(F)F)cc3)cc2c1)N1CC(N2CCN(C(=O)c3nccs3)CC2)C1
QUERY: Select one: 1 or 2 . Criterion: greater recorded Kd. # respond with the chosen item's label
RESULT: 1
